Biological target: JAK1 (recombinant purified GST-tagged catalytic domain) (Homo sapiens (Human))
Test: biochemical
PROPERTY NAME: IC50 (nM)
Give the number; nM is assumed, so skip it.

Recorded results for 2 compounds are shown here.
Problem: For the compound CC(=O)c1ccc(Nc2nn([C@H]3CC[C@H](N4CCC4)C[C@@H]3C#N)cc2C(N)=O)cc1 (single isomer, unassigned) , what IC50 is on record?
Solution: 0.3

Problem: May I ask what IC50 has been recorded for N#C[C@@H]1C[C@H](C(=O)NC2CC2)CC[C@H]1n1cc(C(N)=O)c(Nc2ccc(Cl)cc2)n1 (single isomer, unassigned) ?
Solution: 5

New cases:
Problem: What value of IC50 has been reported for the following compound? N#C[C@H]1C[C@@H](NC2CCOCC2)CCC1n1cc(C(N)=O)c(Nc2ccc(Cl)cc2)n1 (single isomer, unassigned)
Solution: 4

###

Target: JAK2 (recombinant purified GST-tagged catalytic domain) (Homo sapiens (Human))
Assay: biochemical
PROPERTY NAME: pIC50
When answering, recall that pIC50 equals minus log10 of the concentration in mol/L, and write that number alone.

Problem: Query (compound): N#C[C@H]1C[C@H](O)CC[C@@H]1n1cc(C(N)=O)c(Nc2ccc(C(F)F)nc2)n1 (single isomer, unassigned) [Example 25-16] ; field requested: pIC50
Solution: 8.00

Problem: Look at this compound and give its reported pIC50. N#C[C@H]1C[C@H](O)CC[C@@H]1n1cc(C(N)=O)c(Nc2ccc(OC(F)(F)F)cc2)n1 (single isomer, unassigned) [Example 24]
Solution: 7.21

Problem: Reported pIC50, compound N#C[C@H]1CCCC[C@@H]1n1cc(C(N)=O)c(Nc2cncc(Cl)c2)n1 (single isomer, unassigned) [Example 17-47] : ____
Solution: 7.41

Problem: Param item = N#C[C@H]1C[C@H](O)CC[C@@H]1n1cc(C(N)=O)c(Nc2ccc(Cl)c(Cl)c2)n1 (single isomer, unassigned) [Example 25-6] ; retrieve measured pIC50.
Solution: 7.70

Problem: pIC50 lookup needed for CC(C)(O)C1CN(C(=O)[C@H]2CC[C@H](n3cc(C(N)=O)c(Nc4ccc(Cl)cc4)n3)[C@@H](C#N)C2)C1 (single isomer, unassigned) [Example 35-9] , thanks.
Solution: 6.50

Problem: State the recorded pIC50 for this entry: C[C@H](N[C@@H]1CC[C@H](n2cc(C(N)=O)c(Nc3ccc(S(=O)(=O)C(F)(F)F)cc3)n2)[C@@H](C#N)C1)C1CC1 (single isomer, unassigned) [Example 28-185]
Solution: 7.08

Problem: Query (compound): CN[C@@H]1CCC(n2cc(C(N)=O)c(Nc3ccc(F)cc3)n2)[C@@H](C#N)C1 (mixture of isomers) [Example 27-3] ; field requested: pIC50
Solution: 7.60

Problem: Looking for the measured pIC50 of CN(C(C1CC1)C1CC1)[C@H]1CC[C@H](n2cc(C(N)=O)c(Nc3ccc(S(=O)(=O)C(F)(F)F)cc3)n2)[C@@H](C#N)C1 (single isomer, unassigned) [Example 28-178] , can you help?
Solution: 8.70

###

Molecular target: JAK2 (recombinant purified GST-tagged catalytic domain) (Homo sapiens (Human), UniProt O60674);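 note: biochemical JAK kinase assay with HTRF detection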
Sequence (O60674 849-1124): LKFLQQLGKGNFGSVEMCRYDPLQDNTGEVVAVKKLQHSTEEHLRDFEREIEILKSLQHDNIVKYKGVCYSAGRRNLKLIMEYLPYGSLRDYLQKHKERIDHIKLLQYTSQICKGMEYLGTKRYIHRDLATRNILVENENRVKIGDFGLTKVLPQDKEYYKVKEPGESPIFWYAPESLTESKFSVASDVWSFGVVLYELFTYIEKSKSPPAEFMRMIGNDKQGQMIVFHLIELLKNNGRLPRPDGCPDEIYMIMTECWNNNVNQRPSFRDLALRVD
Experiment: biochemical
PROPERTY NAME: pIC50
Please report pIC50 as the negative decimal logarithm of the molar concentration, giving only the number.

Problem: If you can, please state the reported pIC50 value of N#C[C@H]1C[C@H](N2CC(F)C2)CC[C@@H]1n1cc(C(N)=O)c(Nc2ccc(S(=O)(=O)C(F)(F)F)cc2)n1 (single isomer, unassigned) .
Solution: 8.22

Next:
Problem: Query: pIC50; subject: N#C[C@H]1CC(N2CCC[C@H]2CF)CC[C@@H]1n1cc(C(N)=O)c(Nc2ccc(S(=O)(=O)C(F)(F)F)cc2)n1 (single isomer, unassigned)
Solution: 7.55

Problem: Would you mind telling me what pIC50 value was observed for C[C@H](N[C@@H]1CC[C@H](n2cc(C(N)=O)c(Nc3ccc(Cl)cc3)n2)[C@@H](C#N)C1)C1CC1 (single isomer, unassigned) ?
Solution: 6.67

###

Target: JAK1 (recombinant purified GST-tagged catalytic domain) (Homo sapiens (Human))
Experiment: biochemical
Classify: T when IC50 is strictly less than 3 nM; F when IC50 is not.

Problem: Determine if N#C[C@H]1CCCCC1n1cc(C(N)=O)c(Nc2ccc3c(c2)CCS3(=O)=O)n1 (mixture of isomers) [Example 20] shows IC50 strictly lower than 3 nM.
Solution: T

Problem: I'd appreciate it if you could check whether CN([C@@H]1CC[C@H](n2cc(C(N)=O)c(Nc3ccc(Cl)cc3)n2)[C@@H](C#N)C1)S(C)(=O)=O (racemic) [Example 38-5] has IC50 smaller than 3 nM.
Solution: F

Problem: Answer whether the compound COCC(C)(C)N[C@H]1CCC(n2cc(C(N)=O)c(Nc3ccccc3)n2)[C@@H](C#N)C1 (single isomer, unassigned) [Example 28-231] has IC50 strictly less than 3 nM
Solution: F

Problem: Identify whether the compound N#C[C@H]1C[C@](O)(C2CC2)CC[C@@H]1n1cc(C(N)=O)c(Nc2ccc(Cl)cc2)n1 (single isomer, unassigned) [Example 32-12] records IC50 below 3 nM.
Solution: T

Problem: # TODO verify IC50 < 3 nM strictly for this compound: N#C[C@H]1C[C@@H](C(=O)NC(C2CC2)C2CC2)CC[C@@H]1n1cc(C(N)=O)c(Nc2ccc(Cl)cc2)n1 (single isomer, unassigned) [Example 35-21]
Solution: F

Problem: I'd appreciate it if you could check whether CC(C)(C(=O)O)c1ccc(Nc2nn([C@H]3CC[C@@H](N4CCC4)C[C@@H]3C#N)cc2C(N)=O)cc1 (single isomer, unassigned) [Example 28-80] has IC50 smaller than 3 nM.
Solution: T

Problem: Please check: IC50 for CC(C)(C)N[C@H]1CCC(n2cc(C(N)=O)c(Nc3ccc(C(F)(F)F)cc3)n2)[C@@H](C#N)C1 (single isomer, unassigned) [Example 28-204] , strictly under 3 nM or not?
Solution: T

Problem: API: query returns whether the compound falls strictly under 3 nM in IC50. Query: N#C[C@H]1CCCC[C@@H]1n1cc(C(N)=O)c(Nc2ccc(S(=O)(=O)C(F)(F)F)c(CO)c2)n1 (racemic) [Example 17-17]
Solution: T

Problem: is_below(IC50, 3 nM) for N#C[C@H]1C[C@H](O)CC[C@@H]1n1cc(C(N)=O)c(Nc2ccc(C(F)(F)F)nc2)n1 (single isomer, unassigned) [Example 25-10] ?
Solution: F

Problem: Is 3 nM strictly greater than the compound's reported IC50? compound: COCCNS(=O)(=O)c1ccc(Nc2nn([C@H]3CCCC[C@@H]3C#N)cc2C(N)=O)cc1 (single isomer, unassigned) [Example 17-98]
Solution: T

Problem: In plain terms, does N#C[C@H]1CCCC[C@@H]1n1cc(C(N)=O)c(Nc2ccc([C@@H](O)C(F)(F)F)nc2)n1 (single isomer, unassigned) [Example 17-46] come in under 3 nM for IC50?
Solution: T

###

Target: JAK1 (recombinant purified GST-tagged catalytic domain) (Homo sapiens (Human), UniProt P23458);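 note: biochemical assay with HTRF read-out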
Sequence (P23458 875-1153): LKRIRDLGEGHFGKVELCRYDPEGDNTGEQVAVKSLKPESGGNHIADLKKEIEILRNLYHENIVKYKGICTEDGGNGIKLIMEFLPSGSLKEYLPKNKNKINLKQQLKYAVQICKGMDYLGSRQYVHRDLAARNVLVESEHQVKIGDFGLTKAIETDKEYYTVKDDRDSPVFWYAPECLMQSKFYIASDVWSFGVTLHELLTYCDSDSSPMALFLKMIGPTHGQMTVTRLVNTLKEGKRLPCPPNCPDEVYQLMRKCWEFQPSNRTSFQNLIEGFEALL
Assay: biochemical
Reported IC50 values follow for various compounds
Your answer should be a plain number; it is taken to be in nM.

Solved entries:
Problem: What IC50 value was documented for this compound, COC(C)(C)CN[C@H]1CCC(n2cc(C(N)=O)c(Nc3ccc(Cl)cc3)n2)[C@@H](C#N)C1 (single isomer, unassigned) [Example 28-228] ?
Solution: 2

Problem: What value of IC50 has been reported for the following compound? N#Cc1ccc(Nc2nn([C@H]3CCCC[C@H]3C#N)cc2C(N)=O)cc1 (racemic) [Example 17-16]
Solution: 11

Continuing:
Problem: Name the reported IC50 value associated with the compound N#C[C@@H]1C[C@H](C(=O)NCC(F)(F)F)CCC1n1cc(C(N)=O)c(Nc2ccc(Cl)cc2)n1 (single isomer, unassigned) [Example 35-10]
Solution: 3

Problem: Requested read-out: IC50. Entry: CC(C)(C)OC(=O)[C@H]1CCC(n2cc(C(N)=O)c(Nc3ccc(F)cc3)n2)[C@@H](C#N)C1 (mixture of isomers) [Example 7-1]
Solution: 17

Problem: Form field: reported IC50 of COCCN[C@H]1CCC(n2cc(C(N)=O)c(Nc3ccc(Cl)cc3)n2)[C@@H](C#N)C1 (single isomer, unassigned) [Example 28-236]
Solution: 0.9

Problem: Find the recorded IC50 belonging to N#C[C@H]1CCCC[C@@H]1n1cc(C(N)=O)c(Nc2ccc(CN)cc2)n1 (racemic) [Example 17-45] and report it.
Solution: 3

Problem: Any idea what its IC50 is? The compound is N#C[C@H]1C[C@H](N2C[C@@H]3[C@@H](CO)[C@@H]3C2)CC[C@@H]1n1cc(C(N)=O)c(Nc2ccc(C(F)(F)F)cc2)n1 (single isomer, unassigned) [Example 28-15]
Solution: 0.9

FYI, the data here is from patent US8962608B2.
